Reported efficacy is given for each of the following molecules.
- Test system: HCT116
- protocolDetails: efficacy (fitted maximal change in viability relative to DMSO control); higher = less cytotoxic (negative = loss of viability)
- details: 48 h
Hi! Could you send only the number? It should be in %, unit omitted.

| molecule | efficacy (%) |
| --- | --- |
| CCCCOc1c(C(=O)c2c(F)cc(C)cc2F)cnc2[nH]ncc12 | -75.8 |
| c1ccc(-c2ccc(CNc3nc(-c4ccccn4)nnc3-c3ccccc3)cc2)cc1 | -77 |

Any idea what efficacy was measured for "COc1cc(OC)c(/C=C/[S+](=O)([O-])Cc2ccc(OC)c(NCC(=O)[O-])c2)c(OC)c1" ?
-58.9

So what's the measured efficacy for this one? "CN1CCN(CC1)C2=C(NC(=O)C/3=C/NC(=O)/C=C3C(F)(F)F)C=C(C=C2)C4=CC(=CC=C4)CN5CCOCC5"
-23.2

Using the record for CC1=C(C)C\2=C(S1)[N]3C(=NN=C3[C@H](CC(=O)NC4=CC=C(OCCOCCOCCOCCNC5=CC=CC6=C5C(=O)N(C7CCC(=O)NC7=O)C6=O)C=C4)\N=C2C8=CC=C(Cl)C=C8)C (some centres not stated) , report its efficacy.
-73.3

Looking for the measured efficacy of "CC#CC(=O)N1CC[C@@H](n2c(=O)n(-c3ccc(Oc4ccccc4)cc3)c3c(N)ncnc32)C1" , can you help?
-53.5

Report efficacy for COC[C@H]1OC(=O)C2=COC3=C2[C@@]1(C)\C4=C(\[C@@H]5CC[C@H](O)[C@@]5(C)C[C@H]4OC(C)=O)C3=O [17-hydroxy Wortmannin] please.
-59.9

###

- Test system: HCT116
- protocolDetails: efficacy (fitted maximal change in viability relative to DMSO control); higher = less cytotoxic (negative = loss of viability)
- details: 48 h
Entry class follows efficacy: low end = under -70%, middle = from -70% up to -30%, high end = -30% and over

| compound | assayedTarget | category |
| --- | --- | --- |
| O=[S+]([O-])(NCCNC/C=C/c1ccc(Br)cc1)c1cccc2cnccc12 | HCT116 | low end |
| CN1CCC(=C2c3ccccc3CC(=O)c3sccc32)CC1 | HCT116 | middle |

Exercise: read the entry "CC(=O)O[C@@]12CO[C@@H]1C[C@H](O)[C@]3(C)[C@@H]2[C@H](OC(=O)C4=CC=CC=C4)[C@]5(O)C[C@H](O)/C(=C(/[C@@H](O)C3=O)C5(C)C)C" and state which class it falls under.
middle

Field: class (efficacy) — entry: "Cn1cc(C[C@@H](N)C(=O)O)c2ccccc21"
high end

Looking at "COC1=CC=C(Cl)C=C1\C2=C\C(=O)NC(=S)N2CC(N)=O" , which class would you pick?
high end

Class for "CC1(N)CCN(c2cnc(-c3cccc(Cl)c3Cl)c(N)n2)CC1" ?
high end

Hi there! Could you help me figure out the category for "COC1=C(OC)C(=O)C(C/C=C(\C)CC/C=C(\C)CC/C=C(\C)CC/C=C(/C)CC/C=C(\C)CC/C=C(\C)CC/C=C(\C)CC/C=C(\C)CC/C=C(\C)CCC=C(C)C)=C(C)C1=O" please?
high end

Note: place this compound into its band. Item: CCCCN(CCCC)CCC(O)c1cc2c(Cl)cc(Cl)cc2c2cc(C(F)(F)F)ccc12.Cl (stereo unspecified)
middle

###

- System: HCT116
- protocolDetails: AC50 cell viability (CellTiter-Glo); higher = less potent
- details: 48 h
Below: a set of entries, each annotated with reported AC50 cell viability.
Please respond with the number in µM and leave the unit unwritten.

Worked examples, 3 compounds total:
| compound | unitsOfMeasure | AC50 cell viability |
| --- | --- | --- |
| Nc1ccc(F)cc1NC(=O)c1ccc(CNC(=O)/C=C/c2cccnc2)cc1 [Chidamide] | µM | 5.9 |
| CCc1cc(/C(C)=N/OCc2ccc(C3CCCCC3)c(C(F)(F)F)c2)ccc1CN1CC(C(=O)O)C1 | µM | 20.9 |
| CC1=CC=C(C=C1)N(C\C2=N\CCN2)C3=CC=CC(=C3)O [Phentolamine mesilate] | µM | 20.9 |

Value lookup for AC50 cell viability; key = "Nc1nccc(-c2c(-c3ccc(F)cc3)ncn2C2CCN(Cc3ccon3)CC2)n1"
13.2

Tell me the measured AC50 cell viability of "Cc1[nH]c(/C=C2\C(=O)Nc3ccc(F)cc32)c(C)c1C(=O)NCCN1CCCC1" , please.
8.11

Value lookup for AC50 cell viability; key = "Cc1ccc(NC(=O)c2ccc3c(c2)OCCO3)cc1NC(=O)c1ccc2nc(OCCN3CCCC3)ccc2c1"
0.0407

# AC50 cell viability lookup, item "CCN1CCN(Cc2ccc(NC(=O)c3ccc(C)c(NC(=O)c4cncc(-c5cccs5)c4)c3)cc2C(F)(F)F)CC1"
1.86

What measured AC50 cell viability goes with COc1ccc(C(=O)CC2(O)C(=O)Nc3c(Cl)ccc(Cl)c32)cc1 (stereo not drawn) ?
1.18

###

- Tested on: HCT116
- protocolDetails: efficacy (fitted maximal change in viability relative to DMSO control); higher = less cytotoxic (negative = loss of viability)
- details: 48 h
Counter-ions that a name gives are not always drawn.
Kind request: treat -70% as inclusive, so efficacy at -70% or higher is T, anything lower is F.

Previously resolved entries follow.
| compound | category |
| --- | --- |
| Cc1cnc(Nc2cccc(CN3CCOCC3)c2)nc1Nc1cccc([S+](=O)([O-])NC(C)(C)C)c1 | T |
| Cc1ccccc1C(C(=O)NC1CCCCC1)N(C(=O)Cn1ccnc1C)c1cccc(F)c1 (stereo not drawn) | T |
| Cc1cc2c(F)c(Oc3ncnn4cc(OC[C@@H](C)O)c(C)c34)ccc2[nH]1 | F |

// inclusive: efficacy at least -70%? input: C/C=C(/C)C(=O)O[C@H]1C(C)=CC23C(=O)C(C=C(CO)[C@@H](O)[C@]12O)[C@H]1[C@@H](C[C@H]3C)C1(C)C (stereo partly drawn) [Ingenol mebutate]
T

Given the entry "CC(=O)Nc1ccc(O)cc1" , answer whether its efficacy meets or surpasses -70%.
T

Check if efficacy >= -70% (inclusive). Item: O=C1CSC(=O)N1C(CCc1ccncc1)COc1ccc(-c2cccc([N+](=O)[O-])c2)cc1 (stereo not drawn)
T

Is the recorded value of efficacy equal to or greater than -70% for this compound? O=[S+]([O-])(c1cccc2cnccc12)N1CCCNCC1 [Fasudil hydrochloride]
T

Check the entry "OC[C@H]1O[C@H](C[C@@H]1O)N2/C=C(C(=O)NC2=O)/C(F)(F)F" : does efficacy equal or exceed -70%?
T

###

- System: HCT116
- protocolDetails: efficacy (fitted maximal change in viability relative to DMSO control); higher = less cytotoxic (negative = loss of viability)
- details: 48 h
readoutLabel: efficacy
// return the numeric value with its unit appended

Examples with answers:
| smiles | assayedTarget | efficacy |
| --- | --- | --- |
| FC(F)(F)c1ccc(CNc2ccc(Cc3c[nH]c4ncc(Cl)cc34)cn2)cn1 | HCT116 | -21.9% |
| CC(C)n1nc(-c2ccc3oc(N)nc3c2)c2c(N)ncnc21 | HCT116 | -100% |
| CC(C)C[C@H](NC(=O)[C@H](Cc1ccccc1)NC(=O)OCc1ccccc1)C(=O)C=O | HCT116 | -64.5% |
| C[C@](O)(COc1ccc(C#N)cc1)C(=O)Nc1ccc(C#N)c(C(F)(F)F)c1 | HCT116 | -91.5% |
| CCN(CC)CCNC(=O)c1c(C)[nH]c(/C=C2/C(=O)Nc3ccc(-c4csc(-c5ccccc5)n4)cc32)c1C | HCT116 | -99.9% |
| C[N]1C=C(C2=CC=CC=C12)/C3=C(/C(=O)NC3=O)C4=C[N](C)C5=CC(=CC=C45)[N+]([O-])=O | HCT116 | -87.5% |

Name the recorded efficacy for "N#Cc1ccc(Oc2ccc3c(c2)COB3O)cc1" .
-21.2%

Using the record for "COc1ccccc1C(=O)Nc1cc2c(cc1N1CCNC[C@H]1C)n(C)c(=O)n2C" , report its efficacy.
-63.8%

###

- Test system: HCT116
- protocolDetails: AC50 cell viability (CellTiter-Glo); higher = less potent
- details: 48 h
Structures can show the parent of a compound that is named as a salt.
Entries whose AC50 cell viability is below 7 µM take fulfilled; entries at or above 7 µM take not fulfilled.

Example results:
| compound | assayedTarget | category |
| --- | --- | --- |
| CCCCCCCc1ccc(CCc2cccc(O)c2C(=O)O)cc1 [MG-149] | HCT116 | not fulfilled |
| CN[C@H]1CC[C@@H](c2ccc(Cl)c(Cl)c2)c2ccccc21 [Sertraline hydrochloride] | HCT116 | not fulfilled |
| CC(C)C[C@@H](C=O)NC(=O)[C@H](CC(C)C)NC(=O)[C@H](CC(C)C)NC(=O)OCc1ccccc1 [MG-132] | HCT116 | fulfilled |
| Cc1cc2c(C(C)C)c(O)c(O)c(C=O)c2c(O)c1-c1c(C)cc2c(C(C)C)c(O)c(O)c(C=O)c2c1O [(-)-Gossypol] | HCT116 | not fulfilled |
| O=C(Nc1ccc([N+](=O)[O-])cc1Cl)c1cc(Cl)ccc1O [Niclosamide] | HCT116 | fulfilled |
| CCN1C(=O)C\N=C/2N\C=C(/N=C12)C3=C(C)N=C(C=C3)C4=NN=C[NH]4 [CC-115] | HCT116 | not fulfilled |
| COc1cc2nc(N3CCCN(C)CC3)nc(NC3CCN(Cc4ccccc4)CC3)c2cc1OC | HCT116 | fulfilled |

Next compound, please.
AC50 cell viability under 7 µM? Item: S=C(NCc1ccc2c(c1)OCO2)N1CCN(c2ncnc3c2oc2ccccc23)CC1 [Amuvatinib]
fulfilled
